- measurement description: method code SF-AS/HPLC, from DOI: 10.1039/a908863f
readout kind: logP

Solved entries (count: 2):
Q: Can you look up the measured logP of `C=CC(=O)Oc1ccccc1` for me?
Ans: 1.94

Q: Can you look up the measured logP of C=CC(=O)OC(C)COc1ccc(C(C)(C)c2ccc(OCC(C)OC(=O)C=C)cc2)cc1 (stereo not drawn) for me?
Ans: 6.1

A. C=CC(=O)OCCCCCCCCCCCCCCCCCC
B. C=CC(=O)OCCOCCOCCOCCOC(=O)C=C
C. C=CC(=O)OCCCCCCOC(=O)C=C
D. C=CC(=O)OCCOCCO
Q: Rank the items in ascending order with respect to logP. Form entry: ranked labels (order as requested).
Ans: D, B, C, A
